Assay: Evaluation of conversion rate to active form in buffer solution (Experimental Example 1)
Type: physicochemical
Details: pH6.5, 0 hr, 37° C., 25 umol/L in buffer solution
Structures can show the parent of a compound that is named as a salt.
Label True for high-side Production rate of Alvocidib (at or above 2%) and False for low-side Production rate of Alvocidib (below it).

Would you please look over these solved cases?
# compound, qualitativeLabel
data = [
    ("CN1CC[C@H](c2c(OC(=O)N(Cc3ccccc3)CC3CCCCN3)cc(O)c3c(=O)cc(-c4ccccc4Cl)oc23)[C@H](O)C1 (some centres unmarked)", "False"),
    ("CN1CC[C@H](c2c(OC(=O)N(C)C[C@@H]3CCCCN3)cc(O)c3c(=O)cc(-c4ccccc4Cl)oc23)[C@H](O)C1", "False"),
    ("CN1CC[C@H](c2c(OC(=O)N(CCC(F)(F)F)CC3CCCCN3)cc(O)c3c(=O)cc(-c4ccccc4Cl)oc23)[C@H](O)C1 (some centres unmarked)", "True"),
    ("CN1CC[C@H](c2c(OC(=O)N(CCF)CC3CCCCN3)cc(O)c3c(=O)cc(-c4ccccc4Cl)oc23)[C@H](O)C1 (some centres unmarked)", "False"),
    ("CCCN(CC1CCCCN1)C(=O)Oc1cc(O)c2c(=O)cc(-c3ccccc3Cl)oc2c1[C@H]1CCN(C)C[C@H]1O (some centres unmarked)", "False"),
]

INPUT: Test whether the compound CCNC(=O)Oc1cc(O)c2c(=O)cc(-c3ccccc3Cl)oc2c1[C@H]1CCN(C)C[C@H]1O [Comparative Example 1, reference compound] records Production rate of Alvocidib of 2% or higher.
OUTPUT: True

INPUT: Test whether the compound CCN(CCC1CCCCN1)C(=O)Oc1cc(O)c2c(=O)cc(-c3ccccc3Cl)oc2c1[C@H]1CCN(C)C[C@H]1O (some centres unmarked) records Production rate of Alvocidib of 2% or higher.
OUTPUT: False

INPUT: Test whether the compound COCCN(CC1CCCCN1)C(=O)Oc1cc(O)c2c(=O)cc(-c3ccccc3Cl)oc2c1[C@H]1CCN(C)C[C@H]1O (some centres unmarked) records Production rate of Alvocidib of 2% or higher.
OUTPUT: False

INPUT: Test whether the compound CCN(C[C@H]1CCCCN1)C(=O)Oc1cc(O)c2c(=O)cc(-c3ccccc3Cl)oc2c1[C@H]1CCN(C)C[C@H]1O records Production rate of Alvocidib of 2% or higher.
OUTPUT: False

INPUT: Test whether the compound CC(C)N(CC1CCCCN1)C(=O)Oc1cc(O)c2c(=O)cc(-c3ccccc3Cl)oc2c1[C@H]1CCN(C)C[C@H]1O (some centres unmarked) records Production rate of Alvocidib of 2% or higher.
OUTPUT: False

INPUT: Test whether the compound CCN(C[C@@H]1CCCCN1)C(=O)Oc1cc(O)c2c(=O)cc(-c3ccccc3Cl)oc2c1[C@H]1CCN(C)C[C@H]1O [Example 1, ditrifluoroacetate] records Production rate of Alvocidib of 2% or higher.
OUTPUT: False

INPUT: Test whether the compound CCN(CC1CCCCN1)C(=O)Oc1cc(O)c2c(=O)cc(-c3ccccc3Cl)oc2c1[C@H]1CCN(C)C[C@H]1O (some centres unmarked) [Example 7, dihydrochloride] records Production rate of Alvocidib of 2% or higher.
OUTPUT: True
